Cited source for all entries: patent EP1132382A1

Test: pKa of isolated hydroxyhydrothiazide
Assay type: physicochemical
Conditions: isolated and purified product
Quantity Measured: pKa
Output: the number by itself.

Using the record for NS(=O)(=O)c1cc2c(cc1Cl)NC(O)NS2(=O)=O (stereo not shown) [hydroxyhydrothiazide] , report its pKa. 9.5

###

Experiment: Hydrolysis of epithiazide to hydroxyhydrothiazide in aqueous phosphate buffer
Format: physicochemical
Details: 0.067 m phosphate buffer, pH=7, 37°C, 0.067 M aqueous phosphate buffer, read-out: epithiazide cleaved into hydroxyhydrothiazide
Quantity Measured: degraded at 10 h

Using the record for NS(=O)(=O)c1cc2c(cc1Cl)NC(CSCC(F)(F)F)NS2(=O)=O (stereo not shown) [epithiazide] , report its degraded at 10 h. > 80%
